- experimental.system: T1, SNTG2, Q9NY99
- T1 sequence (Q9NY99 68-166, limits assumed, looked up): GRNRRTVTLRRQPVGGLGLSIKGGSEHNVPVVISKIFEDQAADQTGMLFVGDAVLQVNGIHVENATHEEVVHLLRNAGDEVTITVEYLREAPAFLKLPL
- assay: holdup assay
- Design: key: below the threshold = too weak to quantify, mostly under pKd 3.1 to 4
- settings: plain residues with an end cap or a label only (N-terminal biotin on a linker: ado-ado)
Item-by-item account of pKd
Give the figure by itself; no unit, no explanation.

For record IGHEDLETAV [DGKI, O75912] the listed pKd is 4.8

For record HYPASPDSWV [CTNND2, Q9UQB3] the listed pKd is 3.72

For record ADEMICITTL [CACNA1D, Q01668] the listed pKd is 4.47

For record SAGADSETHC [SLCO1B1, Q9Y6L6] the listed pKd is 3.61

For record THREVKFTSL [CD46, P15529] the listed pKd is 4.05

For record PGKKPEDSRV [SLCO2B1, O94956] the listed pKd is 3.83

For record QLKSGRDSTV [TMEM178A, Q8NBL3] the listed pKd is 3.77
